targetDesc: Cytochrome P450 2C9 (Homo sapiens) (UniProt P11712)
Sequence (P11712 whole entry, looked up): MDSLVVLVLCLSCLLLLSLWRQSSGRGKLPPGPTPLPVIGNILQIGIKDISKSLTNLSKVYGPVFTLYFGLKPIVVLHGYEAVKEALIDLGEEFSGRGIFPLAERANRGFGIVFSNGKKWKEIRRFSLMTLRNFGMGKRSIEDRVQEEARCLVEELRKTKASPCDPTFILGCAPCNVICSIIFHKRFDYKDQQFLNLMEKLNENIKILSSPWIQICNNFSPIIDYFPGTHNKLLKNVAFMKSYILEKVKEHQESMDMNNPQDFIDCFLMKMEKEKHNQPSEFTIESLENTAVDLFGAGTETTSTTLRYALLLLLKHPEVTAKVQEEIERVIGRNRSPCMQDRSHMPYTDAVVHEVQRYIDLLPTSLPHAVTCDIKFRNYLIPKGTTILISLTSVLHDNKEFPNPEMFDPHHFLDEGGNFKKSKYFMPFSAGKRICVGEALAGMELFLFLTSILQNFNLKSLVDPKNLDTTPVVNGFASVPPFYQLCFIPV
testMethodNotes: Cytochrome P450 family 2 subfamily C member 9 (CYP2C9) small molecule antagonists: luciferase biochemical (cell-free) qHTS assay (AID 1645842); note: nearly all actives have a fitted effect of over 55% in size
statedConditions: P450-Glo CYP2C9 enzyme assay, luciferin luminescence; series mostly up to 57.4 µM
Records with an inconclusive call do not appear. Active and inactive are the calls of the source. Calls come from the whole dose curve; as a rule, active = well fitted inhibition curve with a large enough effect in the repeat runs; inconclusive = weak or mixed curves; inactive = no such curve, though single readings can be large or run the other way.
Result category, one only: T = active, F = inactive

Query string: // outcome(item) with item = CC(C)C[C@@H]1[C@H](c2ccccc2)OC(=O)N1CCCN1CCCCCC1
Result string: F

Query string: // outcome(item) with item = O=C(O)c1[nH]n(-c2ccc(S(=O)(=O)O)cc2)c(=O)c1N=Nc1ccc(S(=O)(=O)O)cc1
Result string: F

Query string: // outcome(item) with item = O=C1NC(c2ccccc2)(c2ccccc2)C(=O)N1COP(=O)(O)O
Result string: F

Query string: // outcome(item) with item = CC1(C)O[C@@H]2C[C@H]3[C@@H]4C[C@H](F)C5=CC(=O)C=C[C@]5(C)[C@@]4(F)[C@@H](O)C[C@]3(C)[C@]2(C(=O)CO)O1
Result string: F

Query string: // outcome(item) with item = O=C(O)CCCC[C@@H]1SC[C@@H]2NC(=O)N[C@@H]21
Result string: F

Query string: // outcome(item) with item = c1ccc2occc2c1
Result string: F

Query string: // outcome(item) with item = C[C@@]12CCC[C@H]1[C@@H]1CC[C@H]3C[C@@H](O)CC[C@]3(C)[C@H]1CC2
Result string: T

Query string: // outcome(item) with item = Cc1ccc2ccc(Cl)cc2n1
Result string: F

Query string: // outcome(item) with item = COc1cc(S(N)(=O)=O)cc(C(=O)O)c1OC
Result string: F

Query string: // outcome(item) with item = CCN1CCN(c2cc(-c3ccc(F)cc3)c3c(n2)CCCCCC3)CC1
Result string: F
